Provide the recorded IC50 for the entries that follow.
Molecular target: Gβ1γ2 (UniProt P54311+P63212)
Experiment: Competition phage ELISA: inhibition of SIGK-phage binding to immobilized biotinylated Gβ1γ2
Set-up: made in house; host or cells: Sf9 insect cells (baculovirus; co-expressed with BirA and (His)6-Gαi1, from which βγ was eluted); species or system rat
Settings: kind of constant not stated; read-out: binding to the G protein β subunit
Numbers only, in nM.

Previously resolved entries follow.
O=C(O)C1C2C=CC(C2)C1c1c2ccc(=O)cc-2oc2cc(O)ccc12 (stereo not drawn)    14000
O=C(O)/C=C/c1c2ccc(=O)c(O)c-2oc2c(O)c(O)ccc12    200

We next turn to a different compound, shown below.
(Q) Given the compound "O=C(O)CCc1c2ccc(=O)c(O)c-2oc2c(O)c(O)ccc12" , what is its reported IC50?
(A) 2500

----------
Target: Gβ1γ2 (UniProt P54311+P63212)
Assay: Competition phage ELISA: inhibition of SIGK-phage binding to immobilized biotinylated Gβ1γ2
Parameters: made in house; host or cells: Sf9 insect cells (baculovirus; co-expressed with BirA and (His)6-Gαi1, from which βγ was eluted); species or system rat
Conditions: Table 6
Provide the recorded IC50 for the entries that follow.
Be sure to follow the number with its unit.

Previously resolved entries follow.
CC1C2C=CC1C(c1c3ccc(=O)c(O)c-3oc3c(O)c(O)ccc13)C2C(=O)O (centres unmarked)    0.7 µM
O=C(O)c1ccccc1-c1c2ccc(=O)c(O)c-2oc2c(O)c(O)ccc12    0.2 µM
O=C(O)C1CC23C(Cl)C(Cl)C(Cl)C(Cl)C2(CC1c1c2ccc(=O)c(O)c-2oc2c(O)c(O)ccc12)C3(Cl)Cl (centres unmarked)    0.2 µM

For every listed record, write down its IC50.
1. O=C1C=CC2C(=C1O)Oc1c(ccc(O)c1O)/C2=C\C=C(O)O (centres unmarked)
2. O=C(O)c1cccc2cccc(-c3c4ccc(=O)c(O)c-4oc4c(O)c(O)ccc34)c12 [drawing 108]

(A)
["0.2 µM", "0.15 µM"]

----------
Target: Gβ1γ2 (UniProt P54311+P63212)
Assay: Competition phage ELISA: inhibition of SIGK-phage binding to immobilized biotinylated Gβ1γ2
Parameters: made in house; host or cells: Sf9 insect cells (baculovirus; co-expressed with BirA and (His)6-Gαi1, from which βγ was eluted); species or system rat
Details: SIGK IC50, Table 6
measurementType: pIC50
Numbers only, as −log10 of the molar value.

(Q) Given the compound O=C(O)C1CCCCC1c1c2ccc(=O)c(O)c-2oc2c(O)c(O)ccc12 (stereo not shown) [drawing 103] , what is its reported pIC50?
(A) 6.70

----------
Provide the recorded % of Wild-Type Signal for the entries that follow.
Biological target: Gβ1γ2 (Gβ1 mutants) (UniProt P54311+P63212, L117A)
Construct: made in house; host or cells: Sf9 insect cells (baculovirus), partially purified via (His)6-Gαi1 on Ni-NTA
Assay: Phage ELISA: binding of peptide-displaying phage to wild-type or alanine-substituted b-βγ
Set-up: species or system rat
Settings: Gβ1 Leu117Ala; mean ± SD
One number for each entry, in %.

SCEKRYGIEFCT [Compound C4]    18.4
SCEKRLGVRSCT (phage-displayed) [Compound C5]    28.5
SCARFFGTPGCT [Compound C8]    24.7
WCPPKLEQWYDGCA [Compound C2]    1.5
SCGHGLKVQSTIGACA [Compound 3C]    10

For every listed record, write down its % of Wild-Type Signal.
1. SIGKALFILGYPDYD [Compound 3.14]
2. SCKRTKAQILLAPCT [Compound C1]

(A)
[2.1, 5.2]

For every listed record, write down its % of Wild-Type Signal.
1. WCPPKAMTQLGIKAC [Compound C14]
2. LCSKAYLLLGQTC [Compound 2F]

(A)
1: 3.8; 2: 2.1

----------
Target: Gβ1γ2 (UniProt P54311+P63212)
Experiment: Competition phage ELISA: inhibition of SIGK-phage binding to immobilized biotinylated Gβ1γ2
Parameters: made in house; host or cells: Sf9 insect cells (baculovirus; co-expressed with BirA and (His)6-Gαi1, from which βγ was eluted); species or system rat
Details: Table 2; read-out: Elisa IC50
Provide the recorded pIC50 for the entries that follow.
Numbers only, as −log10 of the molar value.

Previously resolved entries follow.
CNc1ccc(Nc2cc(S(=O)(=O)O)c(N)c3c2C(=O)c2ccccc2C3=O)cc1    4.23
Nc1cccc(Nc2cc(S(=O)(=O)O)c(N)c3c2C(=O)c2ccccc2C3=O)c1 [drawing 52]    4.72
Nc1ccc(-c2ccc(Nc3cc(S(=O)(=O)O)c(N)c4c3C(=O)c3ccccc3C4=O)cc2)c(S(=O)(=O)O)c1 [drawing 54]    4.74

For every listed record, write down its pIC50.
1. Nc1ccc(Nc2cc(S(=O)(=O)O)c(N)c3c2C(=O)c2ccccc2C3=O)cc1 [drawing 51]
2. Nc1c(S(=O)(=O)O)cc(Nc2cccc(S(N)(=O)=O)c2)c2c1C(=O)c1ccccc1C2=O [drawing 50]

(A)
1: 4.92; 2: 4.25

----------
Biological target: Gβ1γ2 (UniProt P54311+P63212)
Assay: Competition phage ELISA: inhibition of SIGK-phage binding to immobilized biotinylated Gβ1γ2
Set-up: made in house; host or cells: Sf9 insect cells (baculovirus; co-expressed with BirA and (His)6-Gαi1, from which βγ was eluted); species or system rat
Details: IC50, Table 8, last row
measurementType: pIC50
Numbers only, as −log10 of the molar value.

(Q) Which measured pIC50 belongs to O=C(O)C1CCCCC1c1c2ccc(=O)c(O)c-2oc2c(O)c(O)ccc12 (stereo not shown) , tested on Gβ1γ2 (UniProt P54311+P63212)?
(A) 7.00

----------
Biological target: Gβ1γ2 (UniProt P54311+P63212)
Test: Competition phage ELISA: inhibition of SIGK-phage binding to immobilized biotinylated Gβ1γ2
Design: made in house; host or cells: Sf9 insect cells (baculovirus; co-expressed with BirA and (His)6-Gαi1, from which βγ was eluted); species or system rat
Conditions: Table 7; read-out: ELISA IC50
measurementType: IC50 (µM)
One number for each entry, in µM.

Ic1ccc2c(c1)N(c1ccccc1)c1cc(Nc3ccc4c(c3)N(c3ccccc3)c3cc(I)ccc3N4)ccc1N2    2

We next turn to a different compound, shown below.
(Q) Given the compound "Cc1cc(N)c2cc(CC(=O)C(C)(C)C(=O)Nc3ccc4nc(C)cc(N)c4c3)ccc2n1" , what is its reported IC50?
(A) 74

----------
Target: Gαi1-Gβ1γ2 interaction (UniProt P54311+P63212)
Construct: made in house; host or cells: b-βγ: Sf9 insect cells
Test: Flow cytometry competition for FITC-Gαi1 binding to immobilized b-Gβ1γ2
measurementType: IC50

(Q) Given the compound O=C(O)C1CCCCC1c1c2ccc(=O)c(O)c-2oc2c(O)c(O)ccc12 (stereo not shown) , what is its reported IC50?
(A) 400 nM

----------
Target: Gβ1γ2 (Gβ1 mutants) (UniProt P54311+P63212, W99A)
Construct: made in house; host or cells: Sf9 insect cells (baculovirus), partially purified via (His)6-Gαi1 on Ni-NTA
Assay: Phage ELISA: binding of peptide-displaying phage to wild-type or alanine-substituted b-βγ
Design: species or system rat
Details: Gβ1 Trp99Ala; mean ± SD
Excerpt: Wild-type Gβ1 and Gp1 mutants were made in the baculovirus vector PDW464 which encodes a biotinylation site at a lysine upstream of the amino terminus of Gβ1 (Goubaeva, et al. (2003) supra). Mutants were generated by overlap extension PCR using standard protocols. The wild-type and mutant Gβ1 constructs consisted of a 20 amino acid biotin acceptor peptide (BAP) sequence fused in-frame with the amino-terminus of rat Gβ1 subunit. […]
measurementType: % of Wild-Type Signal (%)
One number for each entry, in %.

Previously resolved entries follow.
SCARFFGTPGCT [Compound C8]    −0.8
SCEKRLGVRSCT (phage-displayed) [Compound C5]    39.0
SCKRTKAQILLAPCT [Compound C1]    1.2
SIGKALFILGYPDYD [Compound 3.14]    66.0
LCSKAYLLLGQTC [Compound 2F]    32.6

For every listed record, write down its % of Wild-Type Signal.
1. WCPPKLEQWYDGCA [Compound C2]
2. SCEKRYGIEFCT [Compound C4]
3. WCPPKAMTQLGIKAC [Compound C14]
4. SCGHGLKVQSTIGACA [Compound 3C]

(A)
1: −1.0; 2: 67.0; 3: 10.1; 4: −0.5

----------
Molecular target: Gβ1γ2 (Gβ1 mutants) (UniProt P54311+P63212, N230A)
Construct: made in house; host or cells: Sf9 insect cells (baculovirus), partially purified via (His)6-Gαi1 on Ni-NTA
Assay: Phage ELISA: binding of peptide-displaying phage to wild-type or alanine-substituted b-βγ
Parameters: species or system rat
Conditions: Gβ1 Asn230Ala; mean ± SD
Binning rule for recorded % of Wild-Type Signal: bin 1 (below 10%), bin 2 (10% to below 30%), bin 3 (30% or more)

WCPPKLEQWYDGCA [Compound C2]    bin 1
LCSKAYLLLGQTC [Compound 2F]    bin 2
SCEKRLGVRSCT (phage-displayed) [Compound C5]    bin 3
SIGKALFILGYPDYD [Compound 3.14]    bin 2
WCPPKAMTQLGIKAC [Compound C14]    bin 3
SCEKRYGIEFCT [Compound C4]    bin 2
SCGHGLKVQSTIGACA [Compound 3C]    bin 1
SCARFFGTPGCT [Compound C8]    bin 3

Attention now turns to another entry.
(Q) Which % of Wild-Type Signal band matches SCKRTKAQILLAPCT [Compound C1] ?
(A) bin 2

The origin of these recorded values is patent US8975259B2.
